# Test system: MDA-MB-231
# protocol notes: NCI tumour cell line growth inhibition, 48 h
Calls of active or inactive are those of the source. No stated cut-off is given here; in the data, active = GI50 up to about 1.1 µM and inactive = higher. Square brackets hold non-standard residues; d marks the D form. Peptide text beside a SMILES is read from it. * marks the point of attachment. Phe(4-NO2) = N[CH](Cc1ccc([N+](=O)[O-])cc1)C(=O)O; Boc = CC(C)(C)OC(=O)*
Outcome codes: 1 = active, -1 = inactive

1) NNc1c(C(N)=O)c2c(N)ncnc2n1C1OC(CO)C(O)C1O (stereo not drawn); 1
2) CCOS(C)(=O)=O; -1
3) Cc1cc(=O)oc2cc(OC(=O)N(CCCl)CCCl)ccc12; -1
4) CCN1CCC(O)(c2ccc(Oc3ccc(Cl)cc3)cc2)C(C(=O)c2ccc(Oc3ccc(Cl)cc3)cc2)C1 (stereo not drawn); -1
5) OC(CCN1CCN(CCOC(c2ccc(F)cc2)c2ccc(F)cc2)CC1)c1ccc(Br)cc1 (stereo not drawn); -1
6) COc1cc2c(cc1OC)C(Cl)C(c1ccc(Br)cc1)=C2Cl (stereo not drawn); -1
7) CC(C)=CC1C(COC(=O)c2cc3c(cc2Cl)OCO3)C1(C)C (stereo not drawn); -1
8) C[P+](c1ccccc1)(c1ccc(Cl)cc1)c1ccc(Cl)cc1; -1
9) c1ccc2sc(SCCSc3nc4ccccc4s3)nc2c1; -1
10) C=C(C)CCC(O)[C@](C)(O)[C@H]1[C@H](O)C[C@@]2(C)[C@@H]3CCc4c(cc(OC5OC(CO)C(O)C(O)C5O)c(O)c4C)C3(C)C(=O)C[C@]12C (stereo partly drawn); -1
11) O=C(Oc1c(I)ccccc1=O)c1ccc([N+](=O)[O-])cc1; -1
12) O=C1NC(=O)C(C(c2ccc(Cl)cc2)C2C(=O)NC(=O)NC2=O)C(=O)N1.c1ccncc1; -1
13) COc1cc(Cn2c3c(c4cc(O)ccc42)Cc2ccccc2C3=O)cc(OC)c1; -1
14) CNC(=O)CCC(NC(=O)OC(C)(C)C)C(=O)NC(Cc1ccc([N+](=O)[O-])cc1)C(=O)NCC(=O)NC (stereo not drawn) (Boc-Glu(NHMe)-[Phe(4-NO2)]-Gly-NHMe; configuration not given here); -1
15) O=c1oc2ccccc2cc1-c1cc2ccccn2c1; -1
16) COc1cc(CNC(=S)CCCCCCCCCCC(C)C)ccc1O; -1
17) NCCCCCNOCCCN; -1
18) O=C(CCCCCCCCC(=O)N1C(=O)CC(=O)N(c2ccccc2)C1=S)N1C(=O)CC(=O)N(c2ccccc2)C1=S; -1
19) O=C(O)C1=NN(c2ccc(S(=O)(=O)O)cc2)C2(C1)SCC(=O)N2c1nc2ccccc2s1 (stereo not drawn); -1
20) CCN(CC)Cc1cc(Nc2ccnc3ccc4c(nnn4C)c23)ccc1O; -1
21) O=c1[nH]c2ccc(Cl)cc2o1; -1
22) COc1cc(/C=N\O)cc(/C=N/O)c1O; -1
23) CCc1nc(N)nc(N)c1-c1ccc([N+](=O)[O-])c(Cl)c1; -1
24) N#CC1CNC(N)NC1N (stereo not drawn); -1
25) COc1ccc([N+](=O)[O-])c2c(NCCCN(C)C)c(C)c(C)nc12; -1
26) N#C/C(=C/N1C(=O)/C(=C/c2ccc([N+](=O)[O-])cc2)SC1=S)c1nc2ccccc2s1; -1
27) O=C(O)/C=C\C(=O)Nc1ccccn1; -1
28) O=C1CCCCCCCCCCC1CCCCCBr (stereo not drawn); -1
29) COc1ccc(-c2cc(=O)c3c(O)cc(C)cc3o2)cc1OC; -1
30) O=C(O)CCc1nc2ccccc2[nH]1; -1
31) c1ccc(-c2nnc(SCc3c[nH]c4ccccc34)n2-c2ccccc2)cc1; -1
32) CCC1(c2ccc(OC)c(OC)c2)CCN(S(=O)(=O)c2ccc(C)cc2)C1 (stereo not drawn); -1
33) O=C1/C(=C/c2ccc(O)c(O)c2)CC/C1=C\c1ccc(O)c(O)c1; -1
34) COc1ccc(/C=C/C(=O)Oc2cc(O)cc(O)c2)cc1; -1
35) CC(=NNC(=S)Nc1ccccc1)c1cccc(C(C)=NNC(=S)Nc2ccccc2)n1; -1
36) Cc1cn2c(C)csc2c1P(=O)(OC(C)C)OC(C)C; -1
37) CNCCCNc1c2ccccc2nc2cccc([N+](=O)[O-])c12; 1
38) O=C1c2ccccc2S(=O)(=O)c2c1cccc2[N+](=O)[O-]; -1
39) O=C1CC(c2ccco2)C2(C(=O)NC(=O)NC2=O)C(c2ccco2)C1 (stereo not drawn); -1
40) OC(c1cc2ccccc2[nH]1)C1(c2cccnc2)SCCCS1 (stereo not drawn); -1
41) N#Cc1c(=O)c2cc([N+](=O)[O-])ccc2n2c1[nH]c1ccccc12; -1
42) NC(Cc1ccccc1)P(=O)(O)O (stereo not drawn); -1
43) Cn1c(=O)c2c(nc(Nc3ccc(Cl)cc3)n3c(=O)n(-c4ccccc4)c(=O)n23)n(C)c1=O; -1
